Provenance of the data: ChEMBL document CHEMBL1135880

system name: Hemoglobin HbA (Homo sapiens) (UniProt P69905+P68871)
Sequence (P68871 2-147 partner limits assumed): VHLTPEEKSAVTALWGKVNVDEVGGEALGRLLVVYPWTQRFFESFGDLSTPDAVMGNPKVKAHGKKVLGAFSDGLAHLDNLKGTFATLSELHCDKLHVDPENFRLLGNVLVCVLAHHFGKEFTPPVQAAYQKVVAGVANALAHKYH
Sequence (P69905 2-142 limits assumed): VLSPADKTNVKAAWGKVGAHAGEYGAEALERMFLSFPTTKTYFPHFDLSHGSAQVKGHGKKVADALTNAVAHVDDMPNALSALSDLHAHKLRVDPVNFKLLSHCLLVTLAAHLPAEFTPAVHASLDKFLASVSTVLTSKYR
assay comment: The Hill coefficient at 50% saturation (n50) in the presence of effector.
Assay type: protein-complex assay
value kind: n50e

>>> reported("Cc1cc(C)cc(NC(=O)Cc2ccc(OC3(C(=O)N[C@H](CO)C(=O)O)CCCC3)cc2)c1")
2.1
>>> reported("Cc1cc(C)cc(NC(=O)Cc2ccc(OC3(C(=O)N[C@@H](C(=O)O)C(C)O)CCCC3)cc2)c1 (some centres undefined)")
2.2
>>> reported("CSCC[C@@H](NC(=O)C1(Oc2ccc(CC(=O)Nc3cc(C)cc(C)c3)cc2)CCCC1)C(=O)O")
2.1
>>> reported("Cc1cc(C)cc(NC(=O)Cc2ccc(OC3(C(=O)N[C@H](Cc4ccc5[nH]ccc5c4)C(=O)O)CCCC3)cc2)c1")
2.1
